Biological target: coreROQ (Roquin-1 core ROQ domain) (murine) (UniProt Q4VGL6)
Sequence: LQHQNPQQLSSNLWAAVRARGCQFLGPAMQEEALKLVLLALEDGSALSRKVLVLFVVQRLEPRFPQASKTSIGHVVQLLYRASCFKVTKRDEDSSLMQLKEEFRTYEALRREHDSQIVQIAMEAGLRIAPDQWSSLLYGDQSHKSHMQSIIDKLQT
Test: optical tweezers (kinetics, koff/kon)
Details: low-salt buffer; zero force; Protein/RNA buffer 150 mM NaCl, 50 mM Tris pH 7.0, 1 mM TCEP; OT in low-salt near-physiological buffer (composition not in material); EMSA 3 nM RNA, 0-20 uM …
readoutName: Kd
Answer format reminder: number followed by unit.

Test item GGCAGGGCUGACGUAGUUGGAGUGGUGCGGGAGGGGCUUUCCUAUGUAUGCUAUGCAUACUACAGUGAGGGCAGAAUUCAGGUG [Ox40 CDE, optical tweezers construct] ; coreROQ (Roquin-1 core ROQ domain) (murine) (UniProt Q4VGL6); reported Kd was 33 nM

* * *

Target: extROQ (Roquin-1 extended ROQ domain) (murine) (UniProt Q4VGL6)
Sequence: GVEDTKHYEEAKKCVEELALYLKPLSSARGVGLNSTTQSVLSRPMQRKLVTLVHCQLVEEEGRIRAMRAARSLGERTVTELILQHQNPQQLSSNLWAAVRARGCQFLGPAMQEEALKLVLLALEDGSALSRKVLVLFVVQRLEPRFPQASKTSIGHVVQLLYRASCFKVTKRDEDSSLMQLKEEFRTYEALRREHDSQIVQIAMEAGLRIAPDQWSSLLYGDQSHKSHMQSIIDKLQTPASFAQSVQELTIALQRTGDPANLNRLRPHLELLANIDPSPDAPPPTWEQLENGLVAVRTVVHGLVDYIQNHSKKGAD
Experiment: optical tweezers (kinetics, koff/kon)
Settings: low-salt buffer; extrapolated to zero force; Protein/RNA buffer 150 mM NaCl, 50 mM Tris pH 7.0, 1 mM TCEP; OT in low-salt near-physiological buffer (composition not in material); EMSA 3 nM RNA, 0-20 uM …
readoutName: pKd
Keep it numeric: pKd is minus log10 of the concentration in mol/L.

// field: pKd; key: GGCAGGGCUGACGUAGUUGGAGUGGUGCGGGAGGGCCUGCCAGUACCCUCCACACCGUUCUAGGUGCUGGGCUGGCUCUGGGCAGUGAGGGCAGAAUUCAGGUG [Ox40 ADE, optical tweezers construct] ; value = 8.78
